Assay: in vivo
Details: Sprague-Dawley, rat, po, 6 mg/kg
Metric Name: half-life at 24 h
Report the figure along with its unit, number first.

# half-life at 24 h (compound: C=CC(=O)Nc1cc(Nc2nccc(-c3cn(C)c4ccccc34)n2)c(OC)cc1N(C)CCN(C)C ) is 3.78 h

----------
Experiment: Selectivity ratio of IC50 for antiproliferative activity against human A-431 cells to IC50 for antiproliferative activity against human NCI-H1975 cells
Format: functional
Metric Name: Ratio IC50

// below: answered compounds
# Structure Smiles String, Value
rows = [
    ("C/C=C/C(=O)Nc1cc(Nc2nccc(-c3cn(C)c4ccccc34)n2)c(OC)cc1N(C)CCN(C)C", 12),
    ("C=C(F)C(=O)Nc1cc(Nc2nccc(-c3cn(C)c4ccccc34)n2)c(OC)cc1N(C)CCN(C)C", 12),
    ("C=C(C)C(=O)Nc1cc(Nc2nccc(-c3cn(C)c4ccccc34)n2)c(OC)cc1N(C)CCN(C)C", 11),
]

The compound listed as C=C(Cl)C(=O)Nc1cc(Nc2nccc(-c3cn(C)c4ccccc34)n2)c(OC)cc1N(C)CCN(C)C has a reported Ratio IC50 of 6

So for C=C(Br)C(=O)Nc1cc(Nc2nccc(-c3cn(C)c4ccccc34)n2)c(OC)cc1N(C)CCN(C)C , the logged Ratio IC50 turned out to be 7

The recorded Ratio IC50 for C=C(C(=O)Nc1cc(Nc2nccc(-c3cn(C)c4ccccc34)n2)c(OC)cc1N(C)CCN(C)C)C(F)(F)F is 21

Where do the numbers come from? From ChEMBL document CHEMBL4732150.
